MED listing for selected compounds.
Test system: Oryza sativa
RUN_DESCRIPTION: Toxicity in two leaf stage of Oryza sativa var. Nihonbare (rice) assessed as dose required to selectivity to Oryza sativa
Format: organism-based
COND: in vivo
Express your answer as a number followed by its unit.

Solved entries (count: 4):
| LINE_NOTATION | MED |
| --- | --- |
| COC(=O)Cc1ccsc1S(=O)(=O)NC(=O)Nc1nc(OC)cc(OC)n1 | 0.156 g/acre |
| COc1cc(OC)nc(NC(=O)NS(=O)(=O)c2sccc2COC(CF)CF)n1 | 0.625 g/acre |
| COc1cc(OC)nc(NC(=O)NS(=O)(=O)c2sccc2COCC(F)F)n1 | 0.312 g/acre |
| COc1cc(OC)nc(NC(=O)NS(=O)(=O)c2sccc2COCC(F)(F)C(F)(F)C(F)(F)F)n1 | 0.625 g/acre |

Consider now this further compound.
Write down the reported MED (system: Oryza sativa) of COc1cc(OC)nc(NC(=O)NS(=O)(=O)c2sccc2CNC(=O)CCl)n1 5 g/acre

---

Recorded measurements of log10 MED, one per entry
System: Schoenoplectiella juncoides
RUN_DESCRIPTION: Herbicidal activity against Schoenoplectiella juncoides assessed as dose required to cause sufficient herbicidal activity after 5 to 7 days
Type: functional
Annotation: log10 of MED, g/acre basis.

| LINE_NOTATION | RECORDED_MEASUREMENT |
| --- | --- |
| COc1cc(C)nc(NC(=O)NS(=O)(=O)c2sccc2COCCF)n1 | -1.41 |

Find the measured log10 MED of COc1cc(OC)nc(NC(=O)NS(=O)(=O)c2sccc2COCCCl)n1 with Schoenoplectiella juncoides as test system. -0.81

Provide Schoenoplectiella juncoides log10 MED reading for COc1cc(OC)nc(NC(=O)NS(=O)(=O)c2sccc2COc2cccc(C(F)(F)F)c2)n1 . 1.30

Fetch value of log10 MED on Schoenoplectiella juncoides for CCN(C)Cc1ccsc1S(=O)(=O)NC(=O)Nc1nc(OC)cc(OC)n1 . 1.00

Return reported log10 MED for target or system Schoenoplectiella juncoides, item COc1cc(OC)nc(NC(=O)NS(=O)(=O)c2sccc2COCC(Cl)(Cl)Cl)n1 . 0.40

---

Test system: Oryza sativa
RUN_DESCRIPTION: Toxicity in two leaf stage of Oryza sativa var. Nihonbare (rice) assessed as dose required to selectivity to Oryza sativa
Assay type: organism-based
COND: in vivo
Outcome label depends on MED relative to 1 g/acre: at/above gives YES, below gives NO.

Would you please look over these solved cases?
| LINE_NOTATION | GROUP |
| --- | --- |
| COCc1ccsc1S(=O)(=O)NC(=O)Nc1nc(OC)cc(OC)n1 | NO |
| C#CCOCc1ccsc1S(=O)(=O)NC(=O)Nc1nc(OC)cc(OC)n1 | NO |
| CNC(=O)Cc1ccsc1S(=O)(=O)NC(=O)Nc1nc(OC)cc(OC)n1 | YES |
| COc1cc(OC)nc(NC(=O)NS(=O)(=O)c2sccc2COc2cccc(C(F)(F)F)c2)n1 | NO |
| COc1cc(OC)nc(NC(=O)NS(=O)(=O)c2sccc2COCCCCl)n1 | NO |
| COc1cc(OC)nc(NC(=O)NS(=O)(=O)c2sccc2Cn2cc(C(F)(F)F)ccc2=O)n1 | YES |

Assess whether reported MED for COc1cc(OC)nc(NC(=O)NS(=O)(=O)c2sccc2CC#N)n1 sits at 1 g/acre or higher. NO
